# Test system: CAL-62
# test_method_notes: cells
# Assay type: functional, cell-based
# test_conditions: Homo sapiens
# Description: SANGER: Inhibition of human CAL-62 cell growth in a cell viability assay.
pIC50: −log10 of the molar value.
Quick reference: pIC50 of the listed items.

# annotated cases, reported pIC50 shown
INSERT INTO results (smiles_record, measured_parameter, val) VALUES
  ('CN(C)CCOc1ccc(-c2nc(-c3ccncc3)c(-c3ccc4c(c3)CC/C4=N\O)[nH]2)cc1', 'pIC50', '< 5.30'),
  ('O=C(NCCCNc1nc(Nc2cccc(NC(=O)N3CCCC3)c2)ncc1I)c1cccs1', 'pIC50', '< 5.30');

# query: pIC50 | item CN(NC(=O)CC(=O)NN(C)C(=S)c1ccccc1)C(=S)c1ccccc1 | system: CAL-62;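 further: growth inhibition of CAL-62 cells, read out with a cell viability assay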
7.26

And for O=C1NC(=O)c2c1c(-c1ccccc1Cl)cc1[nH]c3ccc(O)cc3c21 ?
< 5.70

And for COC(=O)[C@H](CCSC)NC(=O)c1ccc(NC[C@@H](N)CS)cc1-c1ccccc1 ?
< 5.99

And for Cc1ccc(C(=O)Nc2ccc(CN3CCN(C)CC3)c(C(F)(F)F)c2)cc1C#Cc1cnc2cccnn12 ?
< 6.29

###

# Tested on: KYSE-410;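 further: growth inhibition of KYSE-410 cells, measured through a cell viability readout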
# test_method_notes: cells
# Type: functional, cell-based
# test_conditions: Homo sapiens
# Description: SANGER: Inhibition of human KYSE-410 cell growth in a cell viability assay.
pIC50: −log10 of the molar value.
Quick reference: pIC50 of the listed items.

# annotated cases, reported pIC50 shown
INSERT INTO measurements (compound, val) VALUES
  ('Cc1ccc(C(=O)Nc2ccc(CN3CCN(C)CC3)c(C(F)(F)F)c2)cc1C#Cc1cnc2cccnn12 [PONATINIB]', '< 6.29'),
  ('COc1ccc(-c2cc3nccn3c(Nc3ncccc3C(N)=O)n2)cc1OC', 5.14),
  ('CC1=C(/C=C/C(C)=C/C=C/C(C)=C/C(=O)O)C(C)(C)CCC1 [TRETINOIN]', '< 5.00'),
  ('O=C(NCCCNc1nc(Nc2cccc(NC(=O)N3CCCC3)c2)ncc1I)c1cccs1 [BX-795]', '< 5.30'),
  ('Cc1ccc(-n2nc(C(C)(C)C)cc2NC(=O)Nc2ccc(OCCN3CCOCC3)c3ccccc23)cc1 [DORAMAPIMOD]', '< 5.00'),
  ('NC1(c2ccc(-c3nc4ccn5c(=O)[nH]nc5c4cc3-c3ccccc3)cc2)CCC1 [MK-2206]', '< 5.40');

Moving on to the next compound.
Which pIC50 value is on record for CCCCCCCCCCCC1=C(O)C(=O)C=C(O)C1=O [EMBELIN] ?
5.20

###

Quick reference: pIC50 of the listed items.
# Test system: HuP-T3
# test_method_notes: cells
# Format: functional, cell-based
# test_conditions: Homo sapiens
# Description: SANGER: Inhibition of human HuP-T3 cell growth in a cell viability assay.
pIC50: −log10 of the molar value.

INSERT INTO assay_data (smiles_record, target, val) VALUES
  ('CS(=O)(=O)N1CCN(Cc2cc3nc(-c4cccc5[nH]ncc45)nc(N4CCOCC4)c3s2)CC1', 'HuP-T3', '< 5.40'),
  ('CO[C@@H]1[C@H](N(C)C(=O)c2ccccc2)C[C@H]2O[C@]1(C)n1c3ccccc3c3c4c(c5c6ccccc6n2c5c31)C(=O)NC4', 'HuP-T3', '< 6.29'),
  ('CN(NC(=O)CC(=O)NN(C)C(=S)c1ccccc1)C(=S)c1ccccc1', 'HuP-T3', 7.25),
  ('CCCCCCCCCCCC1=C(O)C(=O)C=C(O)C1=O', 'HuP-T3', '< 4.49'),
  ('NC(=O)Nc1cc(-c2cccc(F)c2)sc1C(=O)N[C@H]1CCCNC1', 'HuP-T3', 7.06),
  ('NC1(c2ccc(-c3nc4ccn5c(=O)[nH]nc5c4cc3-c3ccccc3)cc2)CCC1', 'HuP-T3', '< 5.40'),
  ('CC1(C)CCC(c2ccc(Cl)cc2)=C(CN2CCN(c3ccc(C(=O)NS(=O)(=O)c4ccc(N[C@H](CCN5CCOCC5)CSc5ccccc5)c(S(=O)(=O)C(F)(F)F)c4)cc3)CC2)C1', 'HuP-T3', '< 5.70');

Moving on to the next compound.
Which pIC50 value is on record for CC1=C(/C=C/C(C)=C/C=C/C(C)=C/C(=O)O)C(C)(C)CCC1 ?
< 5.00
